- Tested on: HL-60
- Assay Notes: NCI tumour cell line growth inhibition, 48 h
Active and inactive are the calls of the source. No stated cut-off is given here; in the data, active = GI50 up to about 1.1 µM and inactive = higher.
Respond only with the outcome that fits, drawn from true for active, false for inactive

See these solved cases before continuing.
1) CC1CCC(C(C)C2C(O)CC3C4CC=C5CC(O)CCC5(C)C4CCC32C)NC1 (configuration not stated)	false
2) COC1CCC(O)C(CO)O1 (configuration not stated)	false

Test call for this compound, please: COc1cccc2c1C(=O)c1c(O)c3c(c(O)c1C2=O)C[C@@](O)(C(C)=O)C[C@@H]3OC1CC(N(C)C)C(O)C(C)O1 (some centres not stated) true

For Cc1ccc(/N=N/c2ccc(N)cc2C)c(S(N)(=O)=O)c1 , which call appears in the assay record? false

Hi team, can someone confirm the assay call for Cc1cc(O)c2cc3c(O)c(O)ccc3cc2c1 ? false

Recorded test call requested for Clc1ccc(/C=C/c2nc3ccccc3s2)cc1Cl false

Please let me know the test result on file for CCc1cccc(C)c1NC(=O)CC(=O)NNC(N)=S . false

###

GI50 values by entry
- System: IGROV-1
- Assay Notes: NCI tumour cell line growth inhibition, 48 h
The source made the active and inactive calls. Rule as the data show it: active = GI50 up to about 1.1 µM and inactive = higher.

1) Nc1ncnc2c1ncn2C1C=CC(CP(=O)(O)O)C1 (stereo not given)	> 100 µM (inactive)

Lab note: molecule CC1=C2C(=O)NN=C2CCN1c1ccc(Br)cc1 tested on IGROV-1; recorded GI50 was > 100 µM (inactive)

Reported IGROV-1 GI50 for item CCCC[C@@H]1CCN2C[C@@H](O)[C@@H](O)[C@@H]2[C@H]1O was > 100 µM (inactive)

Form field, GI50 with IGROV-1, item CCCCn1/c(=N/C(=S)N(C)C)ss/c1=N\C(=S)N(C)C : > 100 µM (inactive)

Entry O=C1C=C(Br)c2c(Br)sc(Br)c21 : GI50 on IGROV-1 = 5.35 µM (inactive)

IGROV-1 GI50 of Nc1ccn([C@H]2CO[C@@H](CO)[C@@H]2O)c(=O)n1 is > 100 µM (inactive)

Let me check: COc1ccc(/C=C2\CCC(CNc3ccc(OC)cc3)C2=O)cc1 (stereo not given) , system IGROV-1, measured GI50 is 13.9 µM (inactive)

Bench note, IGROV-1: entry CC(O[Si](c1ccccc1)(c1ccccc1)C(C)(C)C)[C@H](NC(=O)OC(C)(C)C)C(=O)O[Si](c1ccccc1)(c1ccccc1)C(C)(C)C (stereo not given in full) , its GI50 = 14.9 µM (inactive)

Case O=c1c2ccccc2sc2nc(CCl)nn12 , IGROV-1, GI50 recorded as 17.2 µM (inactive)

Measured on IGROV-1, CN1C(c2ccccc2)CC(=NOCc2ccccc2)CC1c1ccccc1 (stereo not given) has a documented GI50 of 38.1 µM (inactive)

###

- System: DLD-1
- Assay Notes: NCI tumour cell line growth inhibition, 48 h
Activity calls are given as the source filed them. Cut-off read from the data, not from the text of the source: active = GI50 up to about 1.1 µM and inactive = higher.
Response enum: active, inactive

Look over these answered cases.
1) O=C1OCC(C(=O)c2cccc(O)c2)C1=O (centres undefined)	inactive
2) O=C(OCN1C(=O)C2C3C=CC(C2C1=O)C1C2C(=O)N(COC(=O)C4CCCN4)C(=O)C2C31)C1CCCN1 (centres undefined)	inactive
3) Cc1cc(C)cc(NC(=O)CCC(=O)C2CCC/C2=N\NC(=O)C(=O)NN)c1 (centres undefined)	inactive
4) COc1ccc(-c2oc3c(OC)c(OC)c(OC)c(O)c3c(=O)c2OC)cc1O	active

Now consider the entry below.
So what was the verdict on O=c1ccc2nc3cc(Br)ccc3sc-2c1 in this test? inactive

###

- Tested on: Malme-3M
- Assay Notes: NCI tumour cell line growth inhibition, 48 h
Calls of active or inactive are those of the source. Rule as the data show it: active = GI50 up to about 1.1 µM and inactive = higher.
Just give me one of these, please: active, inactive

1) Cn1c2ccccc2c(=NNc2ccccc2C(=O)O)c2ccccc21	inactive
2) CC(C)/C(Cl)=N\OC(=O)Nc1ccc(F)cc1F	inactive
3) CN(C)CCCNc1cc(O)c2c(c1O)C(=O)c1ccccc1C2=O	inactive

Please let me know the test result on file for O=S(=O)(O)C(O)/C=C/c1ccccc1 (stereo not drawn) . inactive

Status in this test for Cc1nc([N+](=O)[O-])cn1-c1nc2ccccn2c1[N+](=O)[O-] ? inactive

Dear colleague, could you share the recorded outcome for CON(C)C(=O)[C@H]1C[C@@]1(C)CO when you have a moment? inactive

Hi, sorry to bother you, what did the test record for O=C(O)CC(NC(=O)/C(=C/c1ccccc1)NC(=O)c1ccccc1)C(=O)O (stereo not drawn) ? inactive

Fill in: this test's call for COc1cccc2c1C(=O)c1c(O)c3c(c(O)c1C2=O)C[C@@](O)(C(C)=O)C[C@@H]3OC1CC(N(C)C)C(O)C(C)O1 (stereo partly drawn) is ___ active

I'd appreciate the recorded outcome for COc1ccc(/C=c2/sc3n(c2=O)NC2(CCC(C)CC2)NN=3)cc1 (stereo not drawn) from this test. inactive

Tell me the assay call for CON(C)C(=O)C(C)NC(=O)OC(C)(C)C (stereo not drawn) please. inactive

Please let me know the test result on file for CC1(c2ccccc2Cl)C(C#N)C(=O)NC(=O)C1C#N (stereo not drawn) . inactive

// outcome(item) with item = Oc1cc(-c2ccccc2)cn2c1nc1ccccc12 inactive

What classification did Clc1ccc(CNc2nc(Cl)c3nc[nH]c3n2)cc1Cl end up with in this test? inactive

So what was the verdict on O=Nc1c(-c2c(O)[nH]c3ccccc23)[nH]c2ccccc12 [INDIRUBIN-3-MONOXIME] in this test? inactive

Which outcome was assigned to Nn1c(Cc2ccc([N+](=O)[O-])cc2)n[nH]c1=O in this test? inactive

In this assay, the call recorded for c1cc2nnc1SCCSCCCSCCS2 was what? inactive

In this assay, the call recorded for CCCCNC(=S)N/C=C1\C(=O)Nc2ccccc2C1=O was what? inactive

Status in this test for C=C(C)[C@@H]1CCC2=C[C@H](OC2=O)[C@@]2(C)C[C@@H]2C(=O)/C=C(/C)C(=O)[C@H]1OC(C)=O ? inactive

Recorded test outcome, item Cc1ccc(S(=O)(=O)N(/N=C(\N)Oc2ccc(Cl)cc2)C(=N)Oc2ccc(Cl)cc2)cc1 inactive

Call for entry Cc1noc(C)c1-n1nc2ccc3nonc3c2n1 : inactive

###

- Tested on: UO-31
- Assay Notes: NCI tumour cell line growth inhibition, 48 h
Active and inactive are the calls of the source. No stated cut-off is given here; in the data, active = GI50 up to about 1.1 µM and inactive = higher.
Return exactly one item of active, inactive

Some solved cases for reference:
1) CC1C(C#N)(C#N)C(C#N)=C(N)C1(C)[N+](=O)[O-] (centres undefined)	inactive
2) CC1OC(O[C@H]2C3C=CO[C@@H](OC4OC(CO)C(O)C(O)C4O)C3[C@@]3(COC(=O)/C=C/c4ccccc4)O[C@@H]23)C(O)C(O)C1O (some centres undefined)	inactive
3) Nn1c(Cc2ccc([N+](=O)[O-])cc2)n[nH]c1=O	inactive
4) C[C@]12CC[C@H]3[C@@H](CCC4=CC(=O)CC[C@@]43C)[C@@H]1CC[C@@H]2C(=O)Nc1ccc([N+](=O)[O-])c(C(F)(F)F)c1	inactive
5) NS(=O)(=O)c1nnc(NS(=O)(=O)c2ccc(F)cc2)s1	inactive

Hey, what did the test say about O=C(Nc1cccc(Cc2cccc(NC(=O)c3ccccc3)c2)c1)c1ccccc1 ? inactive

Could you please tell me the result logged for c1cc2nnc1SCCSCCCSCCS2 in this assay? inactive

// return assay outcome for Cc1ccc(Nc2nc(C)c(C(=O)CC(=O)C(=O)Nc3c(C)cccc3C(C)(C)C)s2)cc1 inactive

What outcome does the record of this test show for COC(=O)c1c(CC(Cc2ccc3c(c2)CCCC3)C(=O)OC)ccc2c1CCCC2 (centres undefined) ? inactive

How did this test come out for Cn1c(=O)oc2cc(C(=O)CSC(=S)N3CCCCCC3)ccc21 ? inactive

###

- Tested on: MOLT-4
- Assay Notes: NCI tumour cell line growth inhibition, 48 h
The source made the active and inactive calls. Rule as the data show it: active = GI50 up to about 1.1 µM and inactive = higher.
Thanks in advance; please answer with one of these: active, inactive

1. Cc1cc(C)nc(NS(=O)(=O)c2ccc(Nc3c4ccccc4nc4ccc(C(=O)Nc5ccc(S(N)(=O)=O)cc5)cc34)cc2)n1	inactive
2. COc1ccc(C[C@H]2NC[C@H](O)[C@H]2OC(C)=O)cc1	active
3. O=c1c2ccccc2sc2nc(CCl)nn12	inactive

# fetch the recorded call for CNCC(=O)Nc1ccc2c(c1)C(=O)c1ccc(NC(=O)CNC)cc1C2=O here inactive

Field: outcome | Entry: CC1(C)CC2(C)OC(=N)C1(C#N)C2(C#N)C#N (stereo not given) inactive

What did the test return for c1cc(N(CCn2cccn2)CCn2cccn2)cc(N(CCn2cccn2)CCn2cccn2)c1 ? inactive

What is the recorded call for this molecule in the test? Nc1ccn([C@H]2CO[C@@H](CO)[C@@H]2O)c(=O)n1 inactive

# lookup: test call for O=c1c2c(c1=O)C1(SCCCS1)c1cc(Cl)ccc1O2 inactive

I'd appreciate the recorded outcome for CC(CC[C@@]1(O)OC2C[C@H]3[C@@H]4CC[C@H]5CC(OC6OC(CO)C(OC7OC(CO)C(O)C(OC8OCC(O)C(O)C8O)C7OC7OC(CO)C(O)C(O)C7O)C(O)C6O)[C@H](O)CC5(C)[C@H]4CCC3(C)C2[C@@H]1C)COC1OC(CO)C(O)C(O)C1O (stereo not given in full) from this test. inactive

Identify the outcome logged in this assay for the molecule shown: O=C1CCCC2C3CC(CN12)C1CCCCN1C3.[O-][Cl+3]([O-])([O-])O (stereo not given) inactive

Which result was noted for this molecule in the test: OCCNC1c2cc(Cl)ccc2-c2c(Cl)cc(Cl)cc21 (stereo not given) inactive

Kindly provide the recorded test outcome for the following molecule: CC(C)(C)[Si](C)(C)OCC1OC(n2cnc3c(N)ncnc32)CC1O (stereo not given) inactive

Record lookup: outcome of this test for NS(=O)(=O)c1nnc(NS(=O)(=O)c2ccc(F)cc2)s1 ? inactive

Recorded test call requested for O=C1c2ccccc2-c2[nH]c3cn[nH]c(=O)c3c21 inactive

For this molecule, state the assay outcome: CC(C)(C)c1cc(C2COC(=O)COCC(=O)OCCOCCOCCO2)cc(C(C)(C)C)c1O (stereo not given) inactive

State the result this test recorded for CCCCCCCCC/C=C1/CC(CO)(COC(=O)C2CCCCC2)OC1=O (stereo not given) . inactive

Dear colleague, could you share the recorded outcome for CSc1ccc(/C=C/C(=O)c2nc3ccccc3[nH]2)cc1 when you have a moment? inactive
